Molecular target: T1, human IL-2Rα (human, UniProt P01589 22-240, limits assumed)
T1 construct: recombinant protein; also called hu IL-2R; human IL-2Ra
T1 sequence: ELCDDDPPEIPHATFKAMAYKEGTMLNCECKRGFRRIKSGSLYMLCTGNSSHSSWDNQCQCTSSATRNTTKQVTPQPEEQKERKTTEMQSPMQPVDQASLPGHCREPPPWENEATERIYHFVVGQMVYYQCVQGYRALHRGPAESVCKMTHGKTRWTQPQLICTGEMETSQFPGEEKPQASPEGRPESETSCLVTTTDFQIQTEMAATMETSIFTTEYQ
Assay: ELISA, P.E. on coated antigen
Define the label as satisfied when OD (PE binding ELISA) is strictly less than 2 OD450 nm and as not satisfied in all remaining cases.

[ask] Is OD (PE binding ELISA) strictly under 2 OD450 nm for the entry FJ1427_P035MP01H05 (VHH, periplasmic extract; also called clone nr; 40) VHH: EVQLVESGGGLVQPGGSLRLSCAASGFTFSNNFMSWVRQAPGKGLEWVSTISYFGDSTTYAESVKGRFTISRDNAKNTLYLQMNNLKPEDTAVYYCAKATSYDSIRSGSRGRGTQVTVSS ?
[reply] not satisfied

[ask] Field: below-cutoff. Rule: recorded OD (PE binding ELISA) strictly less than 2 OD450 nm. Subject: FJ1427_P035MP05D11 (VHH, periplasmic extract; also called clone nr) VHH: QVQLVESGGGSVQAGGSLRLSCEASGPTLFSSYGMGWFRQAPGKKEREFVGAISRYGTYTSYADPVKDRLTISRGNAKSTVYLQMNNTKPEDTAVYYCAAYTYSGSFYSTVKTHHDEYHYWGQGTQVTVSS
[reply] not satisfied

[ask] Is it true that OD (PE binding ELISA) reported for FJ1427_P035MP01D11 (VHH, periplasmic extract; also called clone nr; 84) VHH: QLQLVESGGGLVQAGDSLRLSCAASGRSFRNYIMAWYRQAPGKEREFLAAISWLDGTLYADSVEDRFTISRDNPKNTVHLQMDSLKPEDTAVYYCAADRGPVRPVLAPDVDYWGQGTQVTVSS is less than 2 OD450 nm?
[reply] not satisfied

[ask] Criterion: OD (PE binding ELISA) strictly below 2 OD450 nm. Is it met by FJ1427_P035MP01F02 (VHH, periplasmic extract; also called clone nr; 14) VHH: QVQLQESGGGLVQAGGSLRLSCAASGRTFRTHNMGWFRRAPGKEREFVAAISWNIDNKLYADSVKGRSTISRDNGGNMVFLQMNSLKPEDTAVYYCAADKIPLSSDVAATATEYDDWGQGTQVTVSS ?
[reply] not satisfied

[ask] Consider the binder 6-MP01G05 (VHH, periplasmic extract; also called FJ1427_P035MP01G05) VHH: QVQLQESGGGLVQAGGSLRLSCAASGRTFSSYAMGWFRQAPGKEREFVAVISWNVDNTEYTDSVKGRFTISRDNDKNMVYLQMNSLKPEDTAVYYCAADSIPLSSDMSPTATEYGYWGQGTQVTVSS . Is its OD (PE binding ELISA) strictly less than 2 OD450 nm?
[reply] satisfied

[ask] Quick check: does FJ1427_P035MP05E03 (VHH, periplasmic extract; also called clone nr) VHH: EVQLVESGGGLVQAGGSLRLSCAASGRTLYSSYGMAWFRQAPGKERDFVGSISRYGTYTSYADSVKDRFTISRDNAKSTVYLQMNNTKPEDTAVYYCAAYTYSGSFYSTVKTHRDEYQYWGQGTQVTVSS have OD (PE binding ELISA) under 2 OD450 nm?
[reply] not satisfied

[ask] Report whether reported OD (PE binding ELISA) is lower than 2 OD450 nm (strictly) for FJ1427_P035MP05G08 (VHH, periplasmic extract; also called clone nr) VHH: QLQLVESGGGLVQAGGSLRLSCTASGLTFEGYAIGWFRQAPGKEREGVSYITGSDASTYYIDSVKGRFTISSDFAKSTVYLQMNNLKPEDTAVYYCAVDRLGSRGGYASSWWRSGDMDLWGKGTLVTVSS
[reply] not satisfied

[ask] I'd appreciate it if you could check whether FJ1427_P035MP01G11 (VHH, periplasmic extract; also called clone nr; 87) VHH: QVQLVESGGGLVQAGGSLRLSCAASGITFNDHTMAWFRQAPGKEREFVAARDWSDIITRYASSVKGRFTISRDNAGNTGFLQMNSLRPEDTAVYYCAAREGGVVAGVRSGAPYDYWGRGTQVTVSS has OD (PE binding ELISA) smaller than 2 OD450 nm.
[reply] not satisfied

[ask] # TODO verify OD (PE binding ELISA) < 2 OD450 nm strictly for this binder: FJ1427_P035MP05F06 (VHH, periplasmic extract; also called clone nr; 430) VHH: EVQLVESGGGLVQAGDSLRLSCAASGFNFGWHAMGWFRQAPGKEREFVATITWTGRDTYYADSVRGRFTISKDNAKDTLFLQMNSLRPDDTGVYYCAKARERATWAYSEDDCDYWGQGTQVTVSS
[reply] not satisfied

[ask] Given the entry FJ1427_P035MP05H05 (VHH, periplasmic extract; also called clone nr) VHH: QVQLVESGGGLVQAGDSLRLSCAASGFNFGWHAMGWFRQAPGKEREFVATITWTGRDTYYADSVRGRFTISKDNAKNTLFLQMSSLRPDDTGVYYCAKARERATWAYSEDDCDYWGQGTQVTVSS , would its reported OD (PE binding ELISA) be below 2 OD450 nm?
[reply] not satisfied

[ask] Does the reported OD (PE binding ELISA) of FJ1427_P035MP05C04 (VHH, periplasmic extract; also called clone nr; 411) VHH: EVQLVESGGGSVQAGGSLRLSCEASGRTLFSSYGMGWFRQAPGKEREFVGAISRFGTYTSYADPVKDRFTISRDNAKSTVYLQMNNTKPEDTAVYYCAAYTYSGSFYSTVKTHHDEYRYWGQGTQVTVSS stay below 2 OD450 nm?
[reply] satisfied

[ask] Just wondering, is OD (PE binding ELISA) of FJ1427_P035MP05C07 (VHH, periplasmic extract; also called 92-MP05C07) VHH: QVQLVESGGGSVQAGGSLRLSCEASGRTLFSSYGMGWFRQAPGKEREFVGAISRFGTYTSYADPVKDRFTISRDNAKSTVYLQMNNTKPEDTAVYYCAAYTYSGSFYSTVKTHHDEYRYWGQGTQVTVSS below 2 OD450 nm?
[reply] satisfied

[ask] Just wondering, is OD (PE binding ELISA) of FJ1427_P035MP05B03 (VHH, periplasmic extract; also called clone nr) VHH: QVQLQESGGGLVQPGGSLRLSCAASGITFNDHTMAWFRQAPGKEREFVAARDWSDIITRYASSVKGRFTISRDNAGNTGFLQMNSLRPEDTAVYYCAAREGGVVAGVRSGAPYDYWGQGTQVTVSS below 2 OD450 nm?
[reply] not satisfied

[ask] # TODO verify OD (PE binding ELISA) < 2 OD450 nm strictly for this binder: FJ1427_P035MP01H02 (VHH, periplasmic extract; also called clone nr; 16) VHH: QLQLVESGGGLVQAGDSLRLSCAASGRAFSRYAVGWFRMAPGKGREFVSAINSSGANTYVLDSVKGRFTISRDNDKNTAYLQMDSLQPEDTAVYWCAATSSSYSTYEANYNVWGQGTQVTVSS
[reply] not satisfied

[ask] Threshold test, OD (PE binding ELISA) < 2 OD450 nm: FJ1427_P035MP05B05 (VHH, periplasmic extract; also called clone nr) VHH: EVQLVESGGGLVQAGGSLRLSCAASGFTFDGYAVGWFRQAPGKEPEGVSYITGSDGVTYYIDSVKGRFTISSDNAKRTVYLQMNTLKPEDTAVYYCAVDRLGSQGRYASSWWRAGDMDFWGKGTLVTVSS
[reply] not satisfied
